Data provenance is ChEMBL document CHEMBL5303304.

# System: U2OS
# assaySummary: Incucyte cell viability with U2OS; further: unitless GR value; below 1 slowed growth and below 0 cell loss
# Type: toxicity, cell-based
# testConditions: human, 6 h, 10 µM, compound concentration 10 uM, replicate number 1
valueKind: Growth Rate
Reply with just the number.

1) COCCN(C)c1ccc(NC(=O)/C=C(\C)c2ccc3ccccc3c2)c(C(=O)O)c1 : 0.9

Exercise: Specify measured Growth Rate for CC(=O)Nc1nc2c(Oc3cc(-c4ccc(C(F)(F)F)cc4)ncn3)cccc2s1 .
Key: 0.79

Exercise: Name the recorded Growth Rate of the compound listed here: COc1nc2ccc([C@@](O)(c3ccc(Cl)cc3)c3cncn3C)cc2c(Cl)c1Cc1ccc(-n2cccn2)cc1
Key: -0.25

Exercise: Please indicate Growth Rate recorded for CC(=O)N1CCC(c2ccc(C(=O)NC(=N)N)cc2C(F)(F)F)CC1
Key: 0.3
